Measured IC50, listed per entry.
tested on: LB2241-RCC; experiment: cells; type: functional, cell-based, Homo sapiens; settings: Homo sapiens, LB2241-RCC;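 also: cell viability assay measuring how strongly the cultured human renal carcinoma line is prevented from growing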
Description: SANGER: Inhibition of human LB2241-RCC cell growth in a cell viability assay.

Recorded results for 7 compounds are shown here.
- compound: "C=CC(=O)N1CCCC(Nc2nc(Nc3ccc(N(C)C(=O)CC)cc3)nc3[nH]cnc23)C1 (stereo not drawn)"
  obs.value: "> 10200 nM"
- compound: "O=S(=O)(O)c1ccc2cc(/N=N/c3cc(S(=O)(=O)O)c4cccnc4c3O)ccc2c1"
  obs.value: "> 16000 nM"
- compound: "CS(=O)(=O)N1CCN(Cc2cc3nc(-c4cccc5[nH]ncc45)nc(N4CCOCC4)c3s2)CC1 [PICTILISIB]"
  obs.value: "304 nM"
- compound: "COc1cc(N2CCC(N3CCN(C)CC3)CC2)ccc1Nc1ncc(Cl)c(Nc2ccccc2S(=O)(=O)C(C)C)n1 [TAE-684]"
  obs.value: "988 nM"
- compound: "Cc1ccc(-n2nc(C(C)(C)C)cc2NC(=O)Nc2ccc(OCCN3CCOCC3)c3ccccc23)cc1 [DORAMAPIMOD]"
  obs.value: "> 10000 nM"
- compound: "C/C(=C\\c1csc(C)n1)[C@@H]1C[C@@H]2O[C@]2(C)CCC[C@H](C)[C@H](O)[C@@H](C)C(=O)C(C)(C)[C@@H](O)CC(=O)O1 [PATUPILONE]"
  obs.value: "5.55 nM"
- compound: "CCCCCCCCCCCC1=C(O)C(=O)C=C(O)C1=O [EMBELIN]"
  obs.value: "> 32000 nM"

Moving on to the next compound.
What value of IC50 has been recorded for this entry: CN(C)CCOc1ccc(-c2nc(-c3ccncc3)c(-c3ccc4c(c3)CC/C4=N\O)[nH]2)cc1 [SB590885]
> 5000 nM

###

Measured IC50, listed per entry.
system: A3-KAW; assay: cells; type: functional, cell-based, Homo sapiens; details: Homo sapiens, A3-KAW;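 also: growth inhibition of human A3-KAW cells, read out with a cell viability assay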
Description: SANGER: Inhibition of human A3-KAW cell growth in a cell viability assay.

What value of IC50 has been recorded for this entry: CC(C)C[C@H](NC(=O)[C@H](Cc1ccccc1)NC(=O)c1cnccn1)B(O)O [BORTEZOMIB]
1.28 nM

Proceed to Cc1ccc(C(=O)Nc2ccc(CN3CCN(C)CC3)c(C(F)(F)F)c2)cc1C#Cc1cnc2cccnn12 [PONATINIB]
> 512 nM

Proceed to `COC(=O)[C@H](CCSC)NC(=O)c1ccc(NC[C@@H](N)CS)cc1-c1ccccc1`
> 1020 nM

Proceed to C[C@@H](Oc1cc(-c2cnn(C3CCNCC3)c2)cnc1N)c1c(Cl)ccc(F)c1Cl [CRIZOTINIB]
> 2000 nM

Proceed to NC(=O)Nc1cc(-c2cccc(F)c2)sc1C(=O)N[C@H]1CCCNC1 [AZD-7762]
88.1 nM

Proceed to C=CC(=O)N1CCCC(Nc2nc(Nc3ccc(N(C)C(=O)CC)cc3)nc3[nH]cnc23)C1 (stereo unspecified)
> 10200 nM

###

test system: COLO-824; test: cells; format: functional, cell-based, Homo sapiens; conditions: colo-824
Description: SANGER: Inhibition of human COLO-824 cell growth in a cell viability assay.
Where a SMILES comes first, the peptide text is derived from it. The star is where a group is joined. Cbz = O=C(OCc1ccccc1)*
readout.kind: IC50

What value of IC50 has been recorded for this entry: CC(C)C[C@@H](C=O)NC(=O)[C@H](CC(C)C)NC(=O)[C@H](CC(C)C)NC(=O)OCc1ccccc1 [MG-132] (Cbz-Leu-Leu-Leu-aldehyde)
> 1000 nM
